# System: COG-LL-394h
# assay_summary: selective drug sensitivity score (sDSS, relative to normal bone marrow) (sDSS (score)); higher = more potent and effective on the cell line relative to normal bone marrow cells;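 note: ALL cell lines in 384-well plates, five doses spanning 10,000-fold, each plate scaled between vehicle and 100 µmol/L benzalkonium chloride controls, sDSS an adapted area-under-curve metric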
# experimental_parameters: 72 h
parameter: selective drug sensitivity score
Answer field: number only, no words.

Would you please look over these solved cases?
{"compound": "CC(C)n1cnc2c(NCCc3ccc(O)cc3)nc(-c3csc4ccccc34)nc21 [StemRegenin_1] (top concentration 10000 nM)", "selective drug sensitivity score": -1.8}
{"compound": "NC(=O)c1cccc(-c2cccc(OC(=O)NC3CCCCC3)c2)c1 [URB597] (top concentration 1000 nM)", "selective drug sensitivity score": -0.46}
{"compound": "CO[C@H]1C[C@@H]2CC[C@@H](C)[C@@](O)(O2)C(=O)C(=O)N2CCCC[C@H]2C(=O)O[C@H]([C@H](C)C[C@@H]2CC[C@@H](OP(C)(C)=O)[C@H](OC)C2)CC(=O)[C@H](C)/C=C(\\C)[C@@H](O)[C@@H](OC)C(=O)[C@H](C)C[C@H](C)/C=C/C=C/C=C/1C [Ridaforolimus] (top concentration 100 nM)", "selective drug sensitivity score": -4.84}
{"compound": "CN1CCC(COc2cnc(-c3cccc(Cn4nc(-c5cccc(C#N)c5)ccc4=O)c3)nc2)CC1 [Tepotinib] (top concentration 1000 nM)", "selective drug sensitivity score": -0.08}

Kindly review the next compound as well.
Dear colleague, I am looking for the recorded selective drug sensitivity score of the following compound: CC(=O)Nc1cccc(-n2c(=O)n(C3CC3)c(=O)c3c(Nc4ccc(I)cc4F)n(C)c(=O)c(C)c32)c1 [Trametinib] (top concentration 250 nM) -4.34

* * *

# Tested on: PF-382
# assay_summary: selective drug sensitivity score (sDSS, relative to normal bone marrow) (sDSS (score)); higher = more potent and effective on the cell line relative to normal bone marrow cells
# experimental_parameters: 72 h
Criterion: selective drug sensitivity score meeting or surpassing -0.1. Met: rule met. Not met: rule not met.

See these solved cases before continuing.
{"compound": "CNC(=O)c1ccc(-c2cnc3ncc(Cc4ccc5ncccc5c4)n3n2)cc1F [Capmatinib] (top concentration 1000 nM)", "experimental_system": "PF-382", "cat": "rule met"}
{"compound": "Oc1ccc2c(c1)CC[C@H](c1ccccc1)[C@@H]2c1ccc(OCCN2CCCC2)cc1 [Lasofoxifene] (top concentration 1000 nM)", "experimental_system": "PF-382", "cat": "rule not met"}
{"compound": "Oc1nc(-c2ccc(C(F)(F)F)cc2)nc2c1CSCC2 [XAV939] (top concentration 10000 nM)", "experimental_system": "PF-382", "cat": "rule not met"}

Is it the case that CN1CCc2c(c3ccccc3n2Cc2ccc(C(=O)NO)cc2)C1 [Tubastatin_A] (top concentration 10000 nM) has selective drug sensitivity score reaching or exceeding -0.1? rule met

Is it the case that CS(=O)(=O)CCNCc1ccc(-c2ccc3ncnc(Nc4ccc(OCc5cccc(F)c5)c(Cl)c4)c3c2)o1 [Lapatinib] (top concentration 1000 nM) has selective drug sensitivity score reaching or exceeding -0.1? rule met

Is it the case that CCN1C(=O)CNc2ncc(-c3ccc(-c4nc[nH]n4)nc3C)nc21 [CC-115] (top concentration 10000 nM) has selective drug sensitivity score reaching or exceeding -0.1? rule met

Is it the case that C[C@]12CC[C@H](O)CC1=CC[C@@H]1[C@@H]2CC[C@]2(C)C(c3cccnc3)=CC[C@@H]12 [Abiraterone] (top concentration 5000 nM) has selective drug sensitivity score reaching or exceeding -0.1? rule not met

Is it the case that Cc1ccc(C(=O)Nc2ccc(Oc3cc4cnn(C)c4cc3-c3cn[nH]c3)c(F)c2)c(=O)n1-c1ccc(F)cc1 [Merestinib] (top concentration 1000 nM) has selective drug sensitivity score reaching or exceeding -0.1? rule not met

Is it the case that Cc1cccc(-c2nn3c(c2-c2ccnc4ccc(C(N)=O)cc24)CCC3)n1 [Galunisertib] (top concentration 1000 nM) has selective drug sensitivity score reaching or exceeding -0.1? rule met

Is it the case that CC1(C)CNc2cc(NC(=O)c3cccnc3NCc3ccncc3)ccc21 [Motesanib] (top concentration 10000 nM) has selective drug sensitivity score reaching or exceeding -0.1? rule not met

Provenance of the data: the supplement of paper PMC8967900
